Molecular target: human IAP (Homo sapiens)
Construct: conditioned serum-free medium used as enzyme stock
Sequence (P09923 20-503 limits assumed): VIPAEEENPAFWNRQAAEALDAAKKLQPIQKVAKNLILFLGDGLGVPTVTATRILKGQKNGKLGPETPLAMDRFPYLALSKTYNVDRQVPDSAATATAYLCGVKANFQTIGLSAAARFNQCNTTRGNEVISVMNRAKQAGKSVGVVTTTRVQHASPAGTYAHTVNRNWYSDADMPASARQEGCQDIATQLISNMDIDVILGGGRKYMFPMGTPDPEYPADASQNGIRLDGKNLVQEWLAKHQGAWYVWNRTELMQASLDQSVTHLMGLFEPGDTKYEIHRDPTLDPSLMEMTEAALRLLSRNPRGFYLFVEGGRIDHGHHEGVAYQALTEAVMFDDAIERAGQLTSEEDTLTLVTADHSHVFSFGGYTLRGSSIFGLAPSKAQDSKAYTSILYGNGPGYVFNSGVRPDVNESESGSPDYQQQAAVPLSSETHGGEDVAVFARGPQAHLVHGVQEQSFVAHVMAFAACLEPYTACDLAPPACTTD
Assay: IAP assay using CDP-Star (chemiluminescent, dose response)
Conditions: IAP modulators, Tables A-H; negative Hill coefficient = activator, positive = inhibitor
reportedEndpoint: pIC50
Keep it numeric: pIC50 is minus log10 of the concentration in mol/L.

Which measured pIC50 value corresponds to O=C1C2CC=CCC2C(=O)N1c1nc(-c2ccco2)n[nH]1 (centres unmarked) [Compound F6] ?
6.39

Which measured pIC50 value corresponds to O=C1C2CC=CCC2C(=O)N1c1nc(-c2cccnc2)n[nH]1 (centres unmarked) [Compound F7] ?
5.75

Which measured pIC50 value corresponds to COc1ccc(-c2n[nH]c3oc(=O)cc(C)c23)cc1 [Compound E4] ?
4.62

Which measured pIC50 value corresponds to O=C(O)c1[nH]nc2c1COc1ccccc1-2 [Compound E1] ?
4.86

Which measured pIC50 value corresponds to Cn1ccnc1Cc1ncnc(Nc2ccccc2)n1 [Compound H3] ?
4.52

Which measured pIC50 value corresponds to CCOC(=O)c1cc(-c2cccc(C(F)(F)F)c2)[nH]n1 [Compound A6] ?
4.34

Which measured pIC50 value corresponds to O=C1C2CC=CCC2C(=O)N1c1nc(-c2ccccc2)n[nH]1 (centres unmarked) [Compound F5] ?
7.20

Which measured pIC50 value corresponds to CC(C)(C)C(=O)COC(=O)c1cc(-c2ccc(Br)cc2)[nH]n1 [Compound A12] ?
4.37

Which measured pIC50 value corresponds to COc1ccc(-c2nnc3oc(O)cc(C)c2-3)cc1 [Compound E5] ?
4.68

Which measured pIC50 value corresponds to CC(=O)Nc1nnc(SCc2ccc(Br)cc2)[nH]1 [Compound H2] ?
4.06

Which measured pIC50 value corresponds to O=C1C2CCCCC2C(=O)N1c1nc(CCc2ccccc2)n[nH]1 (centres unmarked) [Compound F3] ?
5.76

Which measured pIC50 value corresponds to O=C(O)c1cc(-c2ccccc2O)n[nH]1 [Compound B2] ?
5.11

Which measured pIC50 value corresponds to COC(=O)c1cc(-c2ccc(Cl)cc2Cl)n[nH]1 [Compound B12] ?
5.03

Which measured pIC50 value corresponds to O=C1C2CCCCC2C(=O)N1c1nc(Cc2ccccc2)n[nH]1 (centres unmarked) [Compound F2] ?
7.21

Which measured pIC50 value corresponds to Cc1cc(O)oc2nnc(-c3ccccc3)c1-2 [Compound E6] ?
4.20

Which measured pIC50 value corresponds to CC(C)c1ccc(-c2cc(C(=O)O)[nH]n2)cc1 [Compound B3] ?
4.01

Which measured pIC50 value corresponds to O=C1C2CC=CCC2C(=O)N1c1nc(CCc2ccccc2)n[nH]1 (centres unmarked) [Compound F9] ?
6.14
